Test system: U251 CNS
methodNotes: NCI-60 one-dose screen, 48 h
measurementConditions: 10 µM unless noted
This is part of a sample that, as a whole, favours compounds with a hit. Of some 83,000 tested, about 20% had one in any assay. Activity calls are given as the source filed them. Rule for the calls: active = growth percent below 10; inactive = the rest.
Possible outcomes: active, inactive

{"columns": ["molecule", "assignedLabel"],
 "data": [
  ["CCCCn1c(-c2ccc(C(=O)O/N=C(\\N)c3ccc(OC)cc3)cc2)nc(-c2ccccc2)c1-c1ccccc1", "active"],
  ["c1ccc2c(-c3nc(-c4c[nH]c5ccncc45)cs3)c[nH]c2c1", "active"],
  ["FC(F)(F)c1cc(Nc2ccc3c(OCCCN4CCOCC4)cccc3n2)ccc1Cl", "active"],
  ["COc1ccc(/C=C(/C#N)n2nnc3cccc(F)c32)cc1", "inactive"],
  ["Cc1c(C(=O)NCCCc2ccccc2)sc2ncc(-c3ccc(Br)cc3)n12", "inactive"],
  ["Cc1[nH]c(C(=O)Nc2ccc(C(=O)NCCN)cc2OC(C)C)c(Cl)c1Cl", "active"],
  ["C#C[C@]1(O)CC[C@H]2[C@@H]3CC=C4c5sc(Nc6ccccc6)nc5CC[C@]4(C)[C@H]3CC[C@@]21C", "inactive"],
  ["COc1cc(Nc2cn[nH]c2-c2ccc(Cl)cc2)cc(OC)c1OC", "inactive"],
  ["CC(=O)N1CCN(c2ccc(OCC3CO[C@](Cn4ccnc4)(c4ccc(Cl)cc4Cl)O3)cc2)CC1 (some centres undefined)", "inactive"]
]}

###

System: SK-MEL-2 melanoma
methodNotes: NCI-60 one-dose screen, 48 h
measurementConditions: 10 µM unless noted
About 83,000 compounds went through this panel and 20% of them were active in at least one assay; those are over-represented in the sample as a whole. Activity calls are given as the source filed them. Rule for the calls: active = growth percent below 10; inactive = the rest.
Possible outcomes: active, inactive

{"columns": ["molecule", "assignedLabel"],
 "data": [
  ["CCOC(=O)c1c(C)oc2ncnc(N3CCN(C(=O)COc4ccc(C(C)(C)C)cc4)CC3)c12", "inactive"],
  ["Cc1cccc2c3c(sc12)C(c1ccc(Cl)cc1)C(C#N)=C(N)O3 (centres undefined)", "inactive"],
  ["Cc1cccc(NCc2cn(-c3ccc(C(=O)O)cc3)nc2-c2ccc(C(=O)O)cc2)n1", "inactive"],
  ["COC1=C(C)C(=O)c2c(c(CCCl)c3n2CCC3OC(C)=O)C1=O (centres undefined)", "active"],
  ["COc1cccc(Oc2ccccc2NC(=O)CNC(=O)c2cccc3ccccc23)c1", "inactive"],
  ["CCCCNC(=O)Oc1ccc(/C(=C(\\C)c2ccc(Cl)cc2)c2ccc(OCCN3CCCCC3)cc2)cc1", "inactive"],
  ["CC1=NN(c2ccc(S(=O)(=O)O)cc2)C(=O)C1N=Nc1ccc(-c2ccc(N=Nc3ccc(OS(=O)(=O)c4ccc(C)cc4)cc3)c(S(=O)(=O)O)c2)cc1 (centres undefined)", "inactive"],
  ["O=C(Cc1ccc(F)c(Cl)c1)Nc1cc(C2(C(F)(F)F)CC2)nn1Cc1ccccc1", "inactive"],
  ["CCc1cccc2c3c(sc12)C(c1ccc(Cl)cc1)C(C#N)=C(N)O3 (centres undefined)", "inactive"],
  ["COc1cc(/C=C/c2ccccc2)cc(OC)c1", "inactive"],
  ["COc1cc2oc(-c3ccc(O)cc3)cc(=O)c2c(O)c1-c1c(OC)cc(O)c2c(=O)cc(-c3ccc(O)cc3)oc12", "inactive"],
  ["CCOC(=O)c1[nH]c(C)c(C(=O)OCc2ccccc2C#N)c1C", "inactive"],
  ["O=C(Nc1ccc(Cl)cc1F)c1ccccc1O", "active"],
  ["COc1ccc2c(c1)c(-c1nn3cc(-c4cccs4)nc3s1)cn2C", "inactive"],
  ["CCCCCCCCCCCCCCCCCCOc1ccccc1CC(=O)OCC[N+](CC)(CC)CC", "active"],
  ["C/C=C(\\C)C(=O)N[C@H]1[C@@H](OC(C)=O)C[C@]2(C)C3CC[C@@]4(C)C(CC[C@@H]4C(C)N(C)C)C3CCC2[C@H]1O (some centres undefined)", "inactive"],
  ["CSc1ccc2c(c1)c(CCN)c(C)n2Cc1ccc(Cl)c(Cl)c1", "active"],
  ["COc1cc(C2CC(c3ccc(N(C)C)cc3)=NN2C(C)=O)cc(OC)c1OC (centres undefined)", "inactive"],
  ["COc1nc2ccc(C)cc2cc1-c1nc2c(cnn2-c2ccc(Br)cc2)c(=O)[nH]1", "inactive"]
]}

###

System: HCT-15 colon
methodNotes: NCI-60 one-dose screen, 48 h
measurementConditions: 10 µM unless noted
The panel holds about 83,000 compounds, 20% with a hit somewhere; the sample as a whole holds those more often. Calls of active or inactive are those of the source. How the source made its calls: active means growth percent below 10; inactive means the rest.
Possible outcomes: active, inactive

{"columns": ["molecule", "subjectOfTest", "assignedLabel"],
 "data": [
  ["Cc1ccc2c(n1)C(=O)C(Cl)=C(Nc1ccccc1C(C)C)C2=O", "HCT-15 colon", "inactive"],
  ["OC(c1ccccc1)C(NC(Cc1ccccc1)c1ccccc1)c1ccccc1 (stereo not given)", "HCT-15 colon", "inactive"],
  ["c1ccc2c(c1)Nc1ccncc1S2", "HCT-15 colon", "inactive"],
  ["Cc1[nH]c(C(=O)Nc2ccc(C(=O)NCCN)cc2OC(C)C)c(Cl)c1Cl", "HCT-15 colon", "inactive"],
  ["Cc1ccc(-c2nn(C)c(=O)c3noc(-c4ccc(C)cc4)c23)cc1", "HCT-15 colon", "inactive"],
  ["CC1(C)C2CC1C1(/C=N/NC(N)=S)C(C2)C(C#N)(C#N)C1(C#N)C#N (stereo not given)", "HCT-15 colon", "inactive"],
  ["O=C(/C=C/c1cccc2ccccc12)c1ccc(NC(=O)c2ccccc2CN2C(=O)c3ccccc3C2=O)cc1", "HCT-15 colon", "inactive"],
  ["Cc1ncc(C(=O)Nc2ccc(CN3CCN(C)CC3)c(C(F)(F)F)c2)cc1C#Cc1ccc(N)nc1", "HCT-15 colon", "active"],
  ["CCc1ccc(Oc2c(-c3ccc(OCc4ccc(Cl)cc4)cc3O)n[nH]c2C(F)(F)F)cc1", "HCT-15 colon", "inactive"],
  ["Cc1nn(-c2ccccc2)c(-n2ccnc2)c1/C=N/Nc1nc(-c2ccc(Cl)c(Cl)c2)cs1", "HCT-15 colon", "inactive"],
  ["CCCCn1c(=O)c(-c2cc(-c3ccc(Cl)cc3)nc(-c3ccc(Cl)cc3)c2)cc2cc(Cl)ccc21", "HCT-15 colon", "inactive"],
  ["Nc1ccc(Sc2ccc([N+](=O)[O-])c3nonc23)cc1", "HCT-15 colon", "inactive"],
  ["Nc1ccccc1-c1cc2c(c3c1[nH]c1ccccc13)CCCCC2", "HCT-15 colon", "inactive"],
  ["COc1ccc([C@H]2c3cc(OC)c(OC)cc3C=C(C=O)C2CO)cc1OC (stereo not given in full)", "HCT-15 colon", "inactive"],
  ["CCOc1ccc2nc(SCc3nc4n(n3)S(=O)(=O)c3ccccc3N4C)sc2c1", "HCT-15 colon", "inactive"],
  ["COc1cccc2c(=O)c3c(sc12)c(N1CCNCC1)nc1ccccc13", "HCT-15 colon", "inactive"],
  ["CNC(=O)c1cc(-n2ccc3cc(NC(=O)c4ccc(N5CCOCC5)c(C(F)(F)F)c4)ccc32)ccn1", "HCT-15 colon", "inactive"],
  ["Cc1nc(/N=C(\\N)NC(=O)Nc2ccccc2Cl)sc1C", "HCT-15 colon", "inactive"],
  ["COc1ccccc1/C=C1\\Oc2cc(OCCN3CCC(Cc4ccccc4)CC3)ccc2C1=O", "HCT-15 colon", "inactive"],
  ["COc1cc(CCC[P+](c2ccccc2)(c2ccccc2)c2ccccc2)c(OC)c2c1OCO2", "HCT-15 colon", "inactive"]
]}

###

Test system: HCT-15 colon
methodNotes: NCI-60 one-dose screen, 48 h
measurementConditions: 10 µM unless noted
Compounds without any hit were thinned out: in the full panel of roughly 83,000, 20% have a hit. Calls of active or inactive are those of the source. Rule for the calls: active = growth percent below 10; inactive = the rest.
Possible outcomes: Yes (active), No (inactive)

{"columns": ["molecule", "subjectOfTest", "assignedLabel"],
 "data": [
  ["Cc1nn(-c2ccccc2)c2c1N=c1s/c(=C\\c3ccc(C(F)(F)F)cc3)c(=O)n1CN2", "HCT-15 colon", "No"],
  ["Cc1nc2cnc(N)c(C#Cc3cncc(C(=O)Nc4ccc(CN5CCN(C)CC5)c(C(F)(F)F)c4)c3)c2nc1C", "HCT-15 colon", "Yes"],
  ["Oc1ccc(C#CCOc2ccccc2)cc1CNCCN(Cc1ccccn1)Cc1ccccn1", "HCT-15 colon", "Yes"],
  ["Cc1nc2ccccc2c(/C=C/c2ccccc2)c1C(=O)/C=C/c1ccc(C(F)(F)F)cc1", "HCT-15 colon", "Yes"],
  ["COc1ccc(-c2[nH]c3ccc(OC)cc3c2/C=C(\\C#N)S(=O)(=O)c2ccccc2)cc1", "HCT-15 colon", "No"],
  ["COc1cc(C2CC(c3ccc(SC)cc3)=NN2C(C)=O)cc(OC)c1OC (stereo unspecified)", "HCT-15 colon", "No"]
]}
